The values you see were collected from ChEMBL document CHEMBL3232938.

tested on: Salmonella; assay: Antibacterial activity against Salmonella assessed as growth inhibition after 7 days by microtiter plate assay; assay type: functional; details: 168 h
Listed here: items and their measured MIC.
Report the figure along with its unit, number first.

CCn1cc(C(=O)O)c(=O)c2cc(F)c(N3CCN(CCO[C@H]4O[C@@H]5O[C@@]6(C)CC[C@H]7[C@H](C)CC[C@@H]([C@H]4C)[C@@]57OO6)CC3)cc21 :: 16 µg/mL
CCn1cc(C(=O)O)c(=O)c2cc(F)c(N3CCN(C(=O)CCC(=O)O[C@H]4O[C@@H]5O[C@@]6(C)CC[C@H]7[C@H](C)CC[C@@H]([C@H]4C)[C@@]57OO6)CC3)cc21 :: 16 µg/mL

Now, please, on to the next compound.
Exam item: Fill blank: measured MIC of the compound O=C(O)c1cn(-c2ccc(F)cc2)c2cc(N3CCNCC3)c(F)cc2c1=O is ____.
Marked response: 16 µg/mL

###

Listed here: items and their measured MIC.
test system: Mycobacterium tuberculosis; assay: Antibacterial activity against 1 ug/ml Mycobacterium tuberculosis H37Rv ATCC 27294 assessed as growth inhibition after 7 days by microtiter plate assay; format: functional; settings: H37Rv ATCC 27294, 168 h

Known results for compounds:
C[C@H]1[C@@H](OCCNC2CCN(c3c(F)cc4c(=O)c(C(=O)O)cn(C5CC5)c4c3Cl)C2)O[C@@H]2O[C@@]3(C)CC[C@H]4[C@H](C)CC[C@@H]1[C@@]24OO3 (stereo not given in full) :: 0.185 µM
C[C@H]1[C@@H](OCCCN2CCN(c3cc4c(cc3F)c(=O)c(C(=O)O)cn4-c3ccc(F)cc3)CC2)O[C@@H]2O[C@@]3(C)CC[C@H]4[C@H](C)CC[C@@H]1[C@@]24OO3 :: > 5.64 µM
CCn1cc(C(=O)O)c(=O)c2cc(F)c(N3CCN(CCO[C@H]4O[C@@H]5O[C@@]6(C)CC[C@H]7[C@H](C)CC[C@@H]([C@H]4C)[C@@]57OO6)CC3)cc21 :: > 3.18 µM
C[C@H]1[C@@H](OCCCN2CCN(c3cc4c(cc3F)c(=O)c(C(=O)O)cn4C3CC3)CC2)O[C@@H]2O[C@@]3(C)CC[C@H]4[C@H](C)CC[C@@H]1[C@@]24OO3 :: > 3.05 µM

Now, please, on to the next compound.
Exam item: Fill blank: measured MIC of the compound C[C@H]1[C@@H](OCCN2CCN(c3cc4c(cc3F)c(=O)c(C(=O)O)cn4C3CC3)CC2)O[C@@H]2O[C@@]3(C)CC[C@H]4[C@H](C)CC[C@@H]1[C@@]24OO3 is ____.
Marked response: > 6.23 µM

###

tested on: Mycobacterium tuberculosis; assay: Antibacterial activity against 1 ug/ml Mycobacterium tuberculosis H37Rv ATCC 27294 assessed as growth inhibition after 7 days by microtiter plate assay; format: functional; conditions: H37Rv ATCC 27294, 168 h
Listed here: items and their measured MIC.

Known results for molecules:
C[C@H]1[C@@H](OCCN2CCN(c3cc4c(cc3F)c(=O)c(C(=O)O)cn4-c3ccc(F)cc3)CC2)O[C@@H]2O[C@@]3(C)CC[C@H]4[C@H](C)CC[C@@H]1[C@@]24OO3 :: > 2.87 µM
C[C@H]1[C@@H](OC(=O)CCC(=O)NC2CCN(c3c(F)cc4c(=O)c(C(=O)O)cn(C5CC5)c4c3Cl)C2)O[C@@H]2O[C@@]3(C)CC[C@H]4[C@H](C)CC[C@@H]1[C@@]24OO3 (stereo not given in full) :: 2.73 µM
C[C@H]1[C@@H](OCCCNC2CCN(c3c(F)cc4c(=O)c(C(=O)O)cn(C5CC5)c4c3Cl)C2)O[C@@H]2O[C@@]3(C)CC[C@H]4[C@H](C)CC[C@@H]1[C@@]24OO3 (stereo not given in full) :: 0.181 µM

Exam item: Fill blank: measured MIC of the molecule CCn1cc(C(=O)O)c(=O)c2cc(F)c(N3CCN(CCCO[C@H]4O[C@@H]5O[C@@]6(C)CC[C@H]7[C@H](C)CC[C@@H]([C@H]4C)[C@@]57OO6)CC3)cc21 is ____.
Marked response: 6.21 µM

Exam item: Fill blank: measured MIC of the molecule CCn1cc(C(=O)O)c(=O)c2cc(F)c(N3CCN(C(=O)CCC(=O)O[C@H]4O[C@@H]5O[C@@]6(C)CC[C@H]7[C@H](C)CC[C@@H]([C@H]4C)[C@@]57OO6)CC3)cc21 is ____.
Marked response: > 5.83 µM

###

Listed here: items and their measured MIC.
tested on: Mycobacterium tuberculosis; assay: Antibacterial activity against 1 ug/ml Mycobacterium tuberculosis H37Rv ATCC 27294 assessed as growth inhibition after 7 days by microtiter plate assay; type: functional; conditions: H37Rv ATCC 27294, 168 h
The reply should be a number in µM, with the unit left off.

CC1COc2c(N3CCN(C)CC3)c(F)cc3c(=O)c(C(=O)O)cn1c23 (stereo not drawn) :: 0.69

Now, please, on to the next compound.
Exam item: Give the reported MIC for C[C@H]1[C@@H](OC(=O)CCC(=O)N2CCN(c3cc4c(cc3F)c(=O)c(C(=O)O)cn4C3CC3)CC2)O[C@@H]2O[C@@]3(C)CC[C@H]4[C@H](C)CC[C@@H]1[C@@]24OO3 (system: Mycobacterium tuberculosis).
Marked response: 2.07

###

Listed here: items and their measured MIC.
system: Escherichia coli; experiment: Antibacterial activity against duck Escherichia coli assessed as growth inhibition after 7 days by microtiter plate assay; format: functional; conditions: 168 h
The reply should be a number in µg/mL, with the unit left off.

Known results for molecules:
CCn1cc(C(=O)O)c(=O)c2cc(F)c(N3CCN(CCO[C@H]4O[C@@H]5O[C@@]6(C)CC[C@H]7[C@H](C)CC[C@@H]([C@H]4C)[C@@]57OO6)CC3)cc21 :: 16
CCn1cc(C(=O)O)c(=O)c2cc(F)c(N3CCN(C(=O)CCC(=O)O[C@H]4O[C@@H]5O[C@@]6(C)CC[C@H]7[C@H](C)CC[C@@H]([C@H]4C)[C@@]57OO6)CC3)cc21 :: 16
C[C@H]1[C@@H](OCCN2CCN(c3cc4c(cc3F)c(=O)c(C(=O)O)cn4-c3ccc(F)cc3)CC2)O[C@@H]2O[C@@]3(C)CC[C@H]4[C@H](C)CC[C@@H]1[C@@]24OO3 :: 8
C[C@H]1[C@@H](OCCCNC2CCN(c3c(F)cc4c(=O)c(C(=O)O)cn(C5CC5)c4c3Cl)C2)O[C@@H]2O[C@@]3(C)CC[C@H]4[C@H](C)CC[C@@H]1[C@@]24OO3 (stereo not given in full) :: 8

Now, please, on to the next molecule.
Exam item: Fill blank: measured MIC of the molecule O=C(O)c1cn(-c2ccc(F)cc2)c2cc(N3CCNCC3)c(F)cc2c1=O [SARAFLOXACIN] is ____.
Marked response: 4

###

system: Staphylococcus aureus; assay: Antibacterial activity against Staphylococcus aureus assessed as zone of inhibition at 2 ug/ml; assay type: functional; settings: read-out: DIZ
quantity: zone of inhibition at 2 µg/mL

C[C@H]1[C@@H](OC(=O)CCC(=O)NC2CCN(c3c(F)cc4c(=O)c(C(=O)O)cn(C5CC5)c4c3Cl)C2)O[C@@H]2O[C@@]3(C)CC[C@H]4[C@H](C)CC[C@@H]1[C@@]24OO3 (stereo partly drawn) :: < 5 mm

Exam item: Fill blank: measured zone of inhibition at 2 µg/mL of the molecule C[C@H]1[C@@H](OCCCNC2CCN(c3c(F)cc4c(=O)c(C(=O)O)cn(C5CC5)c4c3Cl)C2)O[C@@H]2O[C@@]3(C)CC[C@H]4[C@H](C)CC[C@@H]1[C@@]24OO3 (stereo partly drawn) is ____.
Marked response: < 5 mm

Exam item: Fill blank: measured zone of inhibition at 2 µg/mL of the molecule O=C(O)c1cn(C2CC2)c2cc(N3CCNCC3)c(F)cc2c1=O [CIPROFLOXACIN] is ____.
Marked response: 9 mm

###

system: Escherichia coli; experiment: Antibacterial activity against duck Escherichia coli assessed as growth inhibition after 7 days by microtiter plate assay; type: functional; conditions: 168 h
quantity: MIC (µg/mL)
The reply should be a number in µg/mL, with the unit left off.

Known results for molecules:
CCn1cc(C(=O)O)c(=O)c2cc(F)c(N3CCNCC3)cc21 :: 4
CCn1cc(C(=O)O)c(=O)c2cc(F)c(N3CCN(CCCO[C@H]4O[C@@H]5O[C@@]6(C)CC[C@H]7[C@H](C)CC[C@@H]([C@H]4C)[C@@]57OO6)CC3)cc21 :: 8

Now, please, on to the next molecule.
Exam item: Give the reported MIC for C[C@H]1[C@@H](OC(=O)CCC(=O)NC2CCN(c3c(F)cc4c(=O)c(C(=O)O)cn(C5CC5)c4c3Cl)C2)O[C@@H]2O[C@@]3(C)CC[C@H]4[C@H](C)CC[C@@H]1[C@@]24OO3 (stereo partly drawn) (system: Escherichia coli).
Marked response: 16
